System tested: recombinant DhelOBP5 (Dastarcus helophoroides, UniProt A0A1I9HZP1)
Sequence (A0A1I9HZP1 entry or part of it): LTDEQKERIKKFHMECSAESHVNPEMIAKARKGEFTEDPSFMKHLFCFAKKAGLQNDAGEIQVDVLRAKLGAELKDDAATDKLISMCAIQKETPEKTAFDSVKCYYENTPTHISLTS
Assay comment: Fluorescence competitive binding assay (1-NPN probe)
Condition set: DhelOBP5, pH 7.4; Scatchard plot; read-out: dissociation constant (Kd) bound to 1-NPN
Reported property: pKd
Please report pKd as the negative decimal logarithm of the molar concentration, giving only the number.

Exercise: Report pKd under test system recombinant DhelOBP5 (Dastarcus helophoroides, UniProt A0A1I9HZP1) for c1ccc(Nc2cccc3ccccc23)cc1 [1-NPN, N-phenyl-1-naphthylamine, reference compound] .
Key: 4.39

----------
System tested: recombinant DhelOBP4 (Dastarcus helophoroides, UniProt A0A1I9HZP6)
Sequence (A0A1I9HZP6 entry or part of it): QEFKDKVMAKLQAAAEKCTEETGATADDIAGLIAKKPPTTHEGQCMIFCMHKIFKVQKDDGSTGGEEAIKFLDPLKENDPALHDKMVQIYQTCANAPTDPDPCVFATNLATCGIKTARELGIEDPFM
Assay comment: Fluorescence competitive binding assay (1-NPN probe)
Condition set: DhelOBP4, pH 7.4; Scatchard plot; read-out: dissociation constant (Kd) bound to 1-NPN
Reported property: Kd (µM)
Write down the numeric answer in µM and omit the unit.

Exercise: Report Kd under test system recombinant DhelOBP4 (Dastarcus helophoroides, UniProt A0A1I9HZP6) for c1ccc(Nc2cccc3ccccc23)cc1 [1-NPN, N-phenyl-1-naphthylamine, reference compound] .
Key: 22.4

----------
System tested: recombinant DhelOBP6 (Dastarcus helophoroides, UniProt A0A1I9HZP3)
Sequence (A0A1I9HZP3 entry or part of it): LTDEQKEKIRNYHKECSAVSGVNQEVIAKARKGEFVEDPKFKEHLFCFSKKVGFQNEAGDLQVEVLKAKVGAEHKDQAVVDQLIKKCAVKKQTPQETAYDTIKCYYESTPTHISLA
Assay comment: Fluorescence competitive binding assay (1-NPN probe)
Condition set: DhelOBP6, pH 7.4; Scatchard plot; read-out: dissociation constant (Kd) bound to 1-NPN
Method: Purified proteins were dissolved in 30 mM Tris-HCl buffer (pH 7.4 and 5.0), and emission fluorescence spectra were recorded on an RF-5301PC fluorescence spectrophotometer (Shimadzu, Kyoto, Japan) at room temperature in a right-angle configuration with a 1-cm light path quartz cuvette. […] The probe 1-NPN was excited at 337 nm, and the emission spectra were recorded between 350 and 500 nm. […]
Reported property: Kd (µM)
Write down the numeric answer in µM and omit the unit.

Exercise: # return recorded Kd for entry c1ccc(Nc2cccc3ccccc23)cc1 [1-NPN, N-phenyl-1-naphthylamine, reference compound]
Key: 120

----------
System tested: recombinant DhelOBP4 (Dastarcus helophoroides)
Assay comment: Fluorescence competitive binding assay (1-NPN probe)
Condition set: DhelOBP4, pH 5.0; read-out: IC50, ligand concentration displacing 50% of the fluorescence intensity of the DhelOBPs/1-NPN complex
Reported property: IC50

Below, 5 molecules whose answers are already recorded.
CC1=CC(=O)[C@H]2C[C@@H]1C2(C)C [(-)-Verbenone] : > 50 µM
CC1=CCC(O)(C(C)C)CC1 (centres unmarked) : > 50 µM
CC1=CCC(C(C)C)=CC1 : > 50 µM
Cc1ccc(C(C)C)cc1 : > 50 µM
CC12CCC(C1)C(C)(C)C2=O (centres unmarked) : > 20 µM

Exercise: # return recorded IC50 for entry `CC1=CCC(=C(C)C)CC1`
Key: > 50 µM

Exercise: # return recorded IC50 for entry CC12CCC(CC1=O)C2(C)C (centres unmarked)
Key: > 50 µM

Exercise: # return recorded IC50 for entry `CC1=CC[C@@H](C(C)(C)O)CC1`
Key: > 50 µM

----------
System tested: recombinant DhelOBP4 (Dastarcus helophoroides)
Assay comment: Fluorescence competitive binding assay (1-NPN probe)
Condition set: DhelOBP4, pH 7.4; read-out: IC50, ligand concentration displacing 50% of the fluorescence intensity of the DhelOBPs/1-NPN complex
Reported property: IC50 (µM)
Write down the numeric answer in µM and omit the unit.

CC1=CCC(C(C)C)=CC1 [γ-Terpinene] : 11

Exercise: # return recorded IC50 for entry CC1=CC[C@@H](C(C)(C)O)CC1 [α-Terpineol]
Key: 10.4

Exercise: # return recorded IC50 for entry CC12CCC(CC1=O)C2(C)C (centres unmarked) [Camphor]
Key: 18

Exercise: # return recorded IC50 for entry Cc1ccc(C(C)C)cc1 [p-Cymene]
Key: 13

Exercise: # return recorded IC50 for entry CC1=CCC(=C(C)C)CC1 [Terpinolene]
Key: 15.7

----------
System tested: recombinant DhelOBP4 (Dastarcus helophoroides)
Assay comment: Fluorescence competitive binding assay (1-NPN probe)
Condition set: DhelOBP4, pH 7.4; calculated from IC50; read-out: Ki, dissociation constant
Reported property: pKi
Please report pKi as the negative decimal logarithm of the molar concentration, giving only the number.

Below, 4 compounds whose answers are already recorded.
CC1=CCC(=C(C)C)CC1 : 4.84
CC12CCC(CC1=O)C2(C)C (centres unmarked) : 4.78
CC1=CC[C@@H](C(C)(C)O)CC1 : 5.02
CC1=CCC(C(C)C)=CC1 : 5.00

Exercise: # return recorded pKi for entry `Cc1ccc(C(C)C)cc1`
Key: 4.92

----------
System tested: recombinant DhelOBP18 (Dastarcus helophoroides, UniProt A0A1I9HZQ8)
Sequence (A0A1I9HZQ8 entry or part of it): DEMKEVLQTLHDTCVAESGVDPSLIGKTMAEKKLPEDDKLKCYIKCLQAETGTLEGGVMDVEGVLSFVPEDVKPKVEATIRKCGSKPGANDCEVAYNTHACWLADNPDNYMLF
Assay comment: Fluorescence competitive binding assay (1-NPN probe)
Condition set: DhelOBP18, pH 7.4; Scatchard plot; read-out: dissociation constant (Kd) bound to 1-NPN
Reported property: pKd
Please report pKd as the negative decimal logarithm of the molar concentration, giving only the number.

Exercise: Report pKd under test system recombinant DhelOBP18 (Dastarcus helophoroides, UniProt A0A1I9HZQ8) for c1ccc(Nc2cccc3ccccc23)cc1 [1-NPN, N-phenyl-1-naphthylamine, reference compound] .
Key: 5.91

----------
System tested: recombinant DhelOBP5 (Dastarcus helophoroides, UniProt A0A1I9HZP1)
Assay comment: Fluorescence competitive binding assay (1-NPN probe)
Condition set: DhelOBP5, pH 7.4; read-out: IC50, ligand concentration displacing 50% of the fluorescence intensity of the DhelOBPs/1-NPN complex
Reported property: IC50

Below, 5 compounds whose answers are already recorded.
CC1=CCC(O)(C(C)C)CC1 (centres unmarked) [Terpinen-4-ol] : > 50 µM
Cc1ccc(C(C)C)cc1 [p-Cymene] : > 50 µM
CC1=CCC(C(C)C)=CC1 [γ-Terpinene] : > 50 µM
CC1=CC(=O)[C@H]2C[C@@H]1C2(C)C [(-)-Verbenone] : > 50 µM
CC12CCC(CC1=O)C2(C)C (centres unmarked) [Camphor] : > 50 µM

Exercise: # return recorded IC50 for entry CC1=CC[C@@H](C(C)(C)O)CC1 [α-Terpineol]
Key: > 50 µM

Exercise: # return recorded IC50 for entry CC12CCC(C1)C(C)(C)C2=O (centres unmarked) [Fenchone]
Key: > 50 µM

Exercise: # return recorded IC50 for entry CC1=CCC(=C(C)C)CC1 [Terpinolene]
Key: > 50 µM

----------
System tested: recombinant DhelOBP14 (Dastarcus helophoroides, UniProt A0A1I9HZQ7)
Sequence (A0A1I9HZQ7 entry or part of it): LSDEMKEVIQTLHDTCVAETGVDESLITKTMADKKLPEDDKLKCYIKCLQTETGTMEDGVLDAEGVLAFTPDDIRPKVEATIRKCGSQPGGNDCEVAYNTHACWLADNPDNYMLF
Assay comment: Fluorescence competitive binding assay (1-NPN probe)
Condition set: DhelOBP14, pH 7.4; Scatchard plot; read-out: dissociation constant (Kd) bound to 1-NPN
Reported property: Kd (µM)
Write down the numeric answer in µM and omit the unit.

Exercise: # return recorded Kd for entry c1ccc(Nc2cccc3ccccc23)cc1 [1-NPN, N-phenyl-1-naphthylamine, reference compound]
Key: 17.4

----------
Examples of compounds with documented IC50 follow.
System tested: recombinant DhelOBP20 (Dastarcus helophoroides, UniProt A0A1I9HZP8)
Sequence (A0A1I9HZP8 entry or part of it): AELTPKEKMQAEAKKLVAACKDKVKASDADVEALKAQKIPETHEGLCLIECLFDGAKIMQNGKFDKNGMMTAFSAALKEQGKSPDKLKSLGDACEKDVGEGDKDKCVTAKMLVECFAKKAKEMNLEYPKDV
Assay comment: Fluorescence competitive binding assay (1-NPN probe)
Condition set: DhelOBP20, pH 7.4; read-out: IC50, ligand concentration displacing 50% of the fluorescence intensity of the DhelOBPs/1-NPN complex

Below, 7 compounds whose answers are already recorded.
CC12CCC(C1)C(C)(C)C2=O (centres unmarked) : > 50 µM
CC1=CCC(=C(C)C)CC1 : > 50 µM
CC1=CCC(C(C)C)=CC1 : > 50 µM
Cc1ccc(C(C)C)cc1 : > 50 µM
CC1=CC(=O)[C@H]2C[C@@H]1C2(C)C [(-)-Verbenone] : > 50 µM
CC1=CCC(O)(C(C)C)CC1 (centres unmarked) : > 50 µM
CC12CCC(CC1=O)C2(C)C (centres unmarked) : > 50 µM

Note: attention shifts to another entry.
Exercise: # return recorded IC50 for entry `CC1=CC[C@@H](C(C)(C)O)CC1`
Key: > 50 µM

----------
System tested: recombinant DhelOBP4 (Dastarcus helophoroides, UniProt A0A1I9HZP6)
Assay comment: Fluorescence competitive binding assay (1-NPN probe)
Condition set: DhelOBP4, pH 7.4; read-out: IC50, ligand concentration displacing 50% of the fluorescence intensity of the DhelOBPs/1-NPN complex
pIC50: −log10 of the molar value.
Reported property: pIC50

Below, 2 compounds whose answers are already recorded.
CC1=CCC(O)(C(C)C)CC1 (stereo not drawn) : < 4.70
CC12CCC(C1)C(C)(C)C2=O (stereo not drawn) : < 4.70

Note: attention shifts to another entry.
Exercise: # return recorded pIC50 for entry CC1=CC(=O)[C@H]2C[C@@H]1C2(C)C [(-)-Verbenone]
Key: < 4.70

Data provenance: paper PMC9962305
